- Test details: AUC (0 to infinity) in monkey at 20 mg/kg, iv administered as bolus dose by HPLC method
- Assay type: ADME, organism-based, Macaca mulatta
- Set-up: dose 20 mg/kg, time infinity, route intravenous
- Test context: rhesus monkey, in vivo
Value type: AUC (µg·h/mL)

INSERT INTO measurements (given_smiles, value_type, result) VALUES
  ('CCO/N=C(\C(=O)N[C@@H]1C(=O)N2C(C(=O)[O-])=C(/C=C/C[n+]3ccc(-c4c[nH]c(/C([O-])=N/C#N)c4C)cc3)CS[C@H]12)c1csc(N)n1.[Na+]', 'AUC', 42.2),
  ('CCO/N=C(\C(=O)N[C@@H]1C(=O)N2C(C(=O)[O-])=C(/C=C/C[n+]3cccc4[nH]c(/C([O-])=N/C#N)cc43)CS[C@H]12)c1csc(N)n1.[Na+]', 'AUC', 9.8),
  ('CCO/N=C(\C(=O)N[C@@H]1C(=O)N2C(C(=O)[O-])=C(/C=C/C[n+]3ccc(-c4csc(/C([O-])=N/C#N)c4)cc3)CS[C@H]12)c1csc(N)n1.[Na+]', 'AUC', 25.9),
  ('CCO/N=C(\C(=O)N[C@@H]1C(=O)N2C(C(=O)[O-])=C(/C=C/C[n+]3cccc4cc(/C([O-])=N/C#N)ccc43)CS[C@H]12)c1csc(N)n1.[Na+]', 'AUC', 8.2),
  ('CCO/N=C(\C(=O)N[C@@H]1C(=O)N2C(C(=O)[O-])=C(/C=C/C[n+]3cccc(/C([O-])=N/C#N)c3)CS[C@H]12)c1csc(N)n1.[Na+]', 'AUC', 9.5),
  ('CCO/N=C(\C(=O)N[C@@H]1C(=O)N2C(C(=O)[O-])=C(/C=C/C[n+]3ccc(-c4cc(/C([O-])=N/C#N)n(C)c4)cc3)CS[C@H]12)c1csc(N)n1.[Na+]', 'AUC', 32.1);
